test-system: S1P1 (membranes prepared from S1P1/CHO cells) (Homo sapiens (Human), UniProt P21453)
Sequence (P21453 whole entry): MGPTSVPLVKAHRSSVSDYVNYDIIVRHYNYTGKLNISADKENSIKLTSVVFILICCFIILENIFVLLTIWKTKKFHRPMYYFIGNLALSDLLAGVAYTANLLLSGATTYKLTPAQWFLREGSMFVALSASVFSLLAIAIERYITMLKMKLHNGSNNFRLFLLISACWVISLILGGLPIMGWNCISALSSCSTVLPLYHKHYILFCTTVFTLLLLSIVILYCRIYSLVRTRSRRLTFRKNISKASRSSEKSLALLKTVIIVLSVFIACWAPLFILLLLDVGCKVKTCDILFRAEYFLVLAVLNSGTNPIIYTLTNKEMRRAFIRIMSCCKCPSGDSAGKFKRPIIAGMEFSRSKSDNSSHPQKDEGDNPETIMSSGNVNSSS
run-description: Receptor [35S] GTPγS binding assay (S1P1 GTPγS)
Format: biochemical
measurement-parameters: phosphate examples; read-out: S1P1 GTPγS
pEC50: −log10 of the molar value.
measure: pEC50

compound	pEC50
CC(C)CSC[C@@H]1CCc2cc([C@H]3CC[C@](N)(COP(=O)(O)O)C3)ccc2C1 [compound 504]	7.00 to 8.00
COCCCOC[C@@H]1CCc2cc([C@H]3CC[C@](N)(COP(=O)(O)O)C3)ccc2C1 [compound 458]	7.00 to 8.00
CCCCCO[C@@H]1CCc2cc([C@@H]3CC[C@](N)(COP(=O)(O)O)C3)ccc2C1 [compound 433]	6.00 to 7.00
Cn1nc(OC[C@@H]2CCc3cc([C@H]4CC[C@](N)(COP(=O)(O)O)C4)ccc3C2)cc1C(F)(F)F [compound 496]	> 8.00
CCCCCC[C@H]1COc2cc([C@@H]3CC[C@](N)(COP(=O)(O)O)C3)ccc2C1 [compound 425]	> 8.00
CCCSC[C@@H]1CCc2cc([C@H]3CC[C@](N)(COP(=O)(O)O)C3)ccc2C1 [compound 503]	> 8.00

We now examine a further compound.
Field pEC50 (entry CC(C)(C)CSC[C@@H]1CCc2cc([C@H]3CC[C@](N)(COP(=O)(O)O)C3)ccc2C1 [compound 515] ) reads 7.00 to 8.00
